Measurement Target: histone deacetylase (HDAC Enzyme)
Test Description: Inhibition of Histone Deacetylase Enzymatic Activity (Boc-Lys(Ac)-AMC, Fluor-de-Lys developer)
Assay type: biochemical
Conditions: Table 10; read-out: HDAC Inhibition (IC50 μM) HDAC Enzyme
Measurement Type: IC50

Solved cases (4 shown):
O=C(NO)c1cn2c(n1)sc1ccccc12    0.1 to 1 µM
O=C(NO)c1ccc(CNC2c3ccccc3COc3ccccc32)cc1 (centres unmarked)    0.1 to 1 µM
O=C1CN=C(c2ccc(C(=O)NO)cc2)c2cc(Br)sc2N1    0.1 to 1 µM
O=C(NO)c1ccc(CN2c3ccccc3CCc3ccccc32)cc1    < 0.05 µM

Proceeding to the next compound to report its IC50.
I am curious: what IC50 value has been reported for `O=C(CCCN1C(=O)c2cccnc2N(C2CC2)c2ccccc21)NO` ?
1 to 10 µM

* * *

Recorded IC50 values for a group of compounds are listed next.
Measurement Target: histone deacetylase (HDAC Enzyme)
Test Description: Inhibition of Histone Deacetylase Enzymatic Activity (Boc-Lys(Ac)-AMC, Fluor-de-Lys developer)
Assay type: biochemical
Conditions: read-out: HDAC Inhibtion (IC50 μM) HDAC Enzyme

Solved cases (2 shown):
CC(C)N1c2ccccc2N=C(c2ccc(C(=O)NO)cc2)c2cccnc21    < 0.05 µM
Cc1ccc2c(c1)Oc1ccccc1N=C2c1ccc(C(=O)NO)cc1    < 0.05 µM

I am curious: what IC50 value has been reported for `CC(C)N1c2ccccc2N=C(c2ccc(C(=O)NO)cc2)c2ccccc21` ?
< 0.05 µM

I am curious: what IC50 value has been reported for `O=C(NO)c1ccc(C2=Nc3cccc(F)c3Oc3ccccc32)cc1` ?
0.05 to 0.1 µM

I am curious: what IC50 value has been reported for `O=C(NO)c1ccc(C2=Nc3ccccc3Oc3ccccc32)nc1` ?
0.1 to 1 µM

I am curious: what IC50 value has been reported for `O=C(NO)c1ccc(C2=Nc3ccccc3Oc3c(O)cccc32)cc1` ?
0.05 to 0.1 µM

I am curious: what IC50 value has been reported for `O=C(NO)c1ccc(C2=Nc3ccccc3Oc3c2cccc3C(F)(F)F)cc1` ?
< 0.05 µM

* * *

Recorded IC50 values for a group of molecules are listed next.
Measurement Target: histone deacetylase (HDAC Enzyme)
Test Description: Inhibition of Histone Deacetylase Enzymatic Activity (Boc-Lys(Ac)-AMC, Fluor-de-Lys developer)
Assay type: biochemical
Conditions: Table 9; read-out: HDAC Inhibition (IC50 μM) HDAC Enzyme

I am curious: what IC50 value has been reported for `O=C(NO)c1cnc(N2C[C@@H]3C[C@H]2CN3c2nccc(C(F)(F)F)n2)nc1` ?
< 0.05 µM

I am curious: what IC50 value has been reported for `O=C(NO)c1cnc(N2C[C@@H]3C[C@H]2CN3C(=O)OC2CCCC2)nc1` ?
< 0.05 µM

I am curious: what IC50 value has been reported for `N#Cc1cccc(N2C[C@@H]3C[C@H]2CN3c2ccc(C(=O)NO)cc2)c1` ?
0.1 to 1 µM

I am curious: what IC50 value has been reported for `O=C(NO)c1cnc(N2C[C@@H]3C[C@H]2CN3c2cccc(C(F)(F)F)n2)nc1` ?
< 0.05 µM

I am curious: what IC50 value has been reported for `O=C(NO)c1cnc(N2C[C@@H]3C[C@H]2CN3c2cccc(S(F)(F)(F)(F)F)c2)nc1` ?
< 0.05 µM

I am curious: what IC50 value has been reported for COc1cccc(N2CC3CC2CN3c2ccc(C(=O)NO)cc2)c1 (centres unmarked) ?
0.1 to 1 µM

I am curious: what IC50 value has been reported for `O=C(NO)c1cnc(N2C[C@@H]3C[C@H]2CN3c2cccc(C(F)(F)F)c2)nc1` ?
< 0.05 µM

I am curious: what IC50 value has been reported for `Cc1cccc(N2C[C@H]3C[C@@H]2CN3c2ccc(C(=O)NO)cc2)c1` ?
0.1 to 1 µM

I am curious: what IC50 value has been reported for `COc1cccc(N2C[C@@H]3C[C@H]2CN3c2ncc(C(=O)NO)cn2)c1` ?
< 0.05 µM

* * *

Recorded IC50 values for a group of compounds are listed next.
Measurement Target: histone deacetylase (HDAC Enzyme)
Test Description: Inhibition of Histone Deacetylase Enzymatic Activity (Boc-Lys(Ac)-AMC, Fluor-de-Lys developer)
Format: biochemical
Conditions: read-out: HDAC Inhibtion (IC50 μM) HDAC Enzyme

O=C(NO)c1ccc(C2=Nc3ccccc3Oc3cc(C(F)(F)F)ccc32)cc1    0.05 to 0.1 µM
O=C(NO)c1ccc(C2=Nc3ccccc3Oc3cnccc32)cc1    0.1 to 1 µM
O=C(NO)c1ccc(C2=Nc3cncnc3N3CCc4cccc2c43)cc1    0.1 to 1 µM

Request: IC50, test system histone deacetylase (HDAC Enzyme), entry `O=C(NO)c1ccc(C2=Nc3ccccc3N(CCN3CCOCC3)c3ncccc32)cc1`
0.05 to 0.1 µM

* * *

Measurement Target: histone deacetylase (HDAC Enzyme)
Test Description: Inhibition of Histone Deacetylase Enzymatic Activity (Boc-Lys(Ac)-AMC, Fluor-de-Lys developer)
Format: biochemical
Conditions: Table 9; read-out: HDAC Inhibition (IC50 μM) HDAC Enzyme
Measurement Type: IC50

O=C(NO)c1cnc(N2CC3CC2CO3)nc1 (centres unmarked)    0.1 to 1 µM
O=C(NO)c1cnc(N2C[C@@H]3C[C@H]2CN3C(c2ccccc2)c2ccccc2)nc1    < 0.05 µM
O=C(NO)c1cnc(N2C[C@@H]3C[C@H]2CN3)nc1    0.1 to 1 µM

Request: IC50, test system histone deacetylase (HDAC Enzyme), entry `O=C(NO)c1cnc(N2C[C@@H]3C[C@H]2CN3c2ccccc2)nc1`
0.05 to 0.1 µM

Request: IC50, test system histone deacetylase (HDAC Enzyme), entry `O=C(NO)c1cnc(N2C[C@@H]3C[C@H]2CN3c2ccc3nonc3c2)nc1`
< 0.05 µM

Request: IC50, test system histone deacetylase (HDAC Enzyme), entry `CC(C)COC(=O)N1C[C@@H]2C[C@H]1CN2c1ncc(C(=O)NO)cn1`
< 0.05 µM

Request: IC50, test system histone deacetylase (HDAC Enzyme), entry `O=C(NO)c1cnc(N2CC3CC(CN(c4cc(C(F)(F)F)ccn4)C3)C2)nc1`
0.1 to 1 µM

* * *

Measurement Target: histone deacetylase (HDAC Enzyme)
Test Description: Inhibition of Histone Deacetylase Enzymatic Activity (Boc-Lys(Ac)-AMC, Fluor-de-Lys developer)
Assay type: biochemical
Conditions: Table 9; read-out: HDAC Inhibition (IC50 μM) HDAC Enzyme
Measurement Type: IC50

O=C(NO)c1cnc(N2C[C@@H]3C[C@H]2CN3c2cccc(OC(F)F)c2)nc1    < 0.05 µM
O=C(NO)c1cnc(N2C[C@@H]3C[C@H]2CN3c2ccc3c(c2)OC(F)(F)O3)nc1    < 0.05 µM
Cc1ccc(N2C[C@H]3C[C@@H]2CN3c2ncc(C(=O)NO)cn2)cc1    < 0.05 µM

Request: IC50, test system histone deacetylase (HDAC Enzyme), entry `O=C(NO)c1ccc(N2C[C@@H]3C[C@H]2CN3c2cc(C(F)(F)F)ccn2)cc1`
0.1 to 1 µM

Request: IC50, test system histone deacetylase (HDAC Enzyme), entry `O=C(NO)c1ccc(N2C[C@@H]3C[C@H]2CN3c2cccc(C(F)(F)F)c2)cc1`
0.1 to 1 µM

Request: IC50, test system histone deacetylase (HDAC Enzyme), entry `O=C(NO)c1ccc(N2C[C@H]3C[C@@H]2CN3c2cc(C(F)(F)F)ccn2)cc1`
1 to 10 µM

Request: IC50, test system histone deacetylase (HDAC Enzyme), entry `O=C(NO)c1cnc(N2C[C@H]3C[C@@H]2CN3c2cc(C(F)(F)F)ccn2)nc1`
< 0.05 µM

Each recorded value in this set is attributed to patent US8399452B2.
